SYSTEM UNDER TEST: Progesterone receptor (Oryctolagus cuniculus) (UniProt P06186)
METHOD DESCRIPTION: Percent inhibition of [3H]- progesterone binding to rabbit uterine progesterone receptor, at 10e-7 M compound concentration
TEST CONTEXT: at 0.1 µM
MEASUREMENT NAME: inhibition (%)
Give bare numbers, in %.

Recorded inhibition, per entry:
# MOLECULE, inhibition [%]
records = [
    ("COC(=O)C1=C(C)N=C(C)/C(=C(/O)OC)C1c1ccc(NCc2ccccc2)c([N+](=O)[O-])c1 (centres undefined)", 0),
    ("COC(=O)C1=C(C)N=C(C)/C(=C(/O)OC)C1c1ccc(N)c(N)c1 (centres undefined)", 16),
    ("COC(=O)C1=C(C)N=C(C)/C(=C(/O)OC)C1c1ccc2nc(-c3ccc4c(c3)OCO4)n(Cc3ccc4c(c3)OCO4)c2c1 (centres undefined)", 5),
]

Record inhibition for all entries; do not skip any.
1. COC(=O)C1=C(C)N=C(C)/C(=C(/O)OC)C1c1ccc2nc(-c3ccc(OC)cc3)n(Cc3ccc(OC)cc3)c2c1 (centres undefined)
2. COC(=O)C1=C(C)N=C(C)/C(=C(/O)OC)C1c1cc2ccccc2n2nnnc12 (centres undefined)
3. COC(=O)C1=C(C)N=C(C)/C(=C(\O)OC)C1c1ccc(N)c([N+](=O)[O-])c1 (centres undefined)
4. COC(=O)C1=C(C)N=C(C)/C(=C(/O)OC)C1c1ccc2[nH]nnc2c1 (centres undefined)
5. COC(=O)C1=C(C)N=C(C)/C(=C(/O)OC)C1c1ccc(C=O)cc1 (centres undefined)
6. CNc1ccc(C2C(C(=O)OC)=C(C)N=C(C)/C2=C(/O)OC)cc1[N+](=O)[O-] (centres undefined)

A.
10
12
0
12
8
10

I'm hoping you can list inhibition for every molecule here, please.
1. COC(=O)C1=C(C)N=C(C)/C(=C(/O)OC)C1c1ccc2[nH]c(S)nc2c1 (centres undefined)
2. COC(=O)Nc1nc2cc(C3C(C(=O)OC)=C(C)N=C(C)/C3=C(/O)OC)ccc2[nH]1 (centres undefined)
3. COC(=O)C1=C(C)N=C(C)/C(=C(/O)OC)C1c1ccc(C2C(C(=O)OC)=C(C)N=C(C)/C2=C(/O)OC)cc1 (centres undefined)
4. COC(=O)C1=C(C)N=C(C)/C(=C(/O)OC)C1c1cc2ccccc2nc1Cl (centres undefined)
5. COC(=O)C1=C(C)N=C(C)/C(=C(/O)OC)C1c1ccc2nc(-c3ccccc3)c(-c3ccccc3)nc2c1 (centres undefined)
6. COC(=O)C1=C(C)N=C(C)/C(=C(/O)OC)C1c1ccc(Cl)c([N+](=O)[O-])c1 (centres undefined)

A.
1. 15
2. 16
3. 16
4. 10
5. 10
6. 5

----------
Give measured inhibition for each item. Keep answers brief.
SYSTEM UNDER TEST: Progesterone receptor (Oryctolagus cuniculus) (UniProt P06186)
Sequence (whole entry): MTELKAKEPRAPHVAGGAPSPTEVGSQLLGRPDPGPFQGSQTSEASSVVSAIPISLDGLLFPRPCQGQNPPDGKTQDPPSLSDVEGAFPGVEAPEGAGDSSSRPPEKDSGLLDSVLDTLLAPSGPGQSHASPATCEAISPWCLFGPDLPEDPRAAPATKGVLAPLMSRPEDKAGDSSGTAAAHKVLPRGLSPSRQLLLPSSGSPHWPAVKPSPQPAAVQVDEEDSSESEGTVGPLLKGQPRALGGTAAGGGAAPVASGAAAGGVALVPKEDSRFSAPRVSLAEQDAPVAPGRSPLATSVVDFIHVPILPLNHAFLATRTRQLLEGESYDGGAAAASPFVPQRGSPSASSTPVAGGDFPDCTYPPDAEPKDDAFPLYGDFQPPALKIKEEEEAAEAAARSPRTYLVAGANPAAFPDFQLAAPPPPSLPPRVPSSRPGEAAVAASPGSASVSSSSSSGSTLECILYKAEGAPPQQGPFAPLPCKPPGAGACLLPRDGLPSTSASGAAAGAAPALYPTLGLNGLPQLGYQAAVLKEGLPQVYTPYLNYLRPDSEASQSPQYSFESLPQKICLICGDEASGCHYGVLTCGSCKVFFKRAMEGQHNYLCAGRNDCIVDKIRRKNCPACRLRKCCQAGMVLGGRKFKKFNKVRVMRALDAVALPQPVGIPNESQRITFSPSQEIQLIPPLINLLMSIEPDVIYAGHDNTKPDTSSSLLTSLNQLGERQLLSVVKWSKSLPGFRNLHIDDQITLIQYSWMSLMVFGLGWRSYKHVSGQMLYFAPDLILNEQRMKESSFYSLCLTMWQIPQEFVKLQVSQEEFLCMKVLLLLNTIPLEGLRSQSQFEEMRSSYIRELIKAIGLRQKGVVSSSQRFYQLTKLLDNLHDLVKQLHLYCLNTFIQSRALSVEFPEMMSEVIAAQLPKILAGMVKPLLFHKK
METHOD DESCRIPTION: Percent inhibition of [3H]- progesterone binding to rabbit uterine progesterone receptor, at 10e-9 M compound concentration
TEST CONTEXT: at 0.001 µM
Give bare numbers, in %.

# COMPOUND, inhibition / %
rows = [
    ("COC(=O)C1=C(C)N=C(C)/C(=C(/O)OC)C1c1cc2ccccc2n2nnnc12 (centres undefined)", 0),
    ("COC(=O)C1=C(C)N=C(C)/C(=C(/O)OC)C1c1ccc(C=O)cc1 (centres undefined)", 3),
    ("COC(=O)C1=C(C)N=C(C)/C(=C(/O)OC)C1c1ccc2nc(-c3ccc(OC)cc3)n(Cc3ccc(OC)cc3)c2c1 (centres undefined)", 2),
]

Kindly review the next compound as well.
Q. Reported inhibition for COC(=O)C1=C(C)N=C(C)/C(=C(/O)OC)C1c1ccc2[nH]c(S)nc2c1 (centres undefined) : what is it?
A. 0
